# Tested on: Sonic hedgehog protein (Shh)
# Procedure Text: small-molecule binders of Shh protein, primary screen, biochemical, small-molecule microarray, 635/667 nm fluorescence (AID 1151);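 note: Shh protein binding to compounds spotted on small-molecule microarray slides; score combines spot fluorescence intensity with signal-to-noise across triplicate slides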
# Assay Setup: small-molecule microarray binding, 635 nm fluorescence; higher = more signal
Measure Name: composite z-score
When you answer, write just the number.

Data request, read-out composite z-score, for COC(=O)[C@H](Cc1ccccc1)N1CC(C)(OC)O[C@@H](Cc2ccccc2)[C@H]1/C=C/C1CC1 (some centres undefined) 0.0034

Would you mind telling me what composite z-score value was observed for COCCCNC(=O)[C@@]1(Cc2ccccc2I)c2ccccc2C(=O)N(C2CCCCC2)[C@H]1c1ccc(CO)cc1 ? 1.04

Entry O=C1N(Cc2ccccc2)c2ccccc2C[C@@]12N=C(c1ccc(OCCCO)cc1)O[C@H]2c1ccccc1 has what composite z-score? 1.34

Tell me the measured composite z-score of C=CCNC(=O)[C@H]1[C@@H]2C(=O)O[C@@H](c3ccccc3)[C@@H](c3ccccc3)N2[C@@H](c2ccc(OCCO)cc2)[C@]12C(=O)N(C(=O)OCCOC)c1ccc(C#CCNC(N)=O)cc12 , please. 0.984

Data origin, for the record: PubChem BioAssay
